- Tested Target: group 2: CDC14A, PTP4A1, BRCA2 and RCL1 homologous peptide/HLA-A*02:01 complexes (mixed)
- Assay Explanation: SPR (BIAcore T200), crude scFv captured, mixed complexes flowed over
Property Measured: SPR binding level (RU)
Give just the number in RU; leave the unit off.

05-AS170036 VL1VH1-56N98I (scFv) scFv: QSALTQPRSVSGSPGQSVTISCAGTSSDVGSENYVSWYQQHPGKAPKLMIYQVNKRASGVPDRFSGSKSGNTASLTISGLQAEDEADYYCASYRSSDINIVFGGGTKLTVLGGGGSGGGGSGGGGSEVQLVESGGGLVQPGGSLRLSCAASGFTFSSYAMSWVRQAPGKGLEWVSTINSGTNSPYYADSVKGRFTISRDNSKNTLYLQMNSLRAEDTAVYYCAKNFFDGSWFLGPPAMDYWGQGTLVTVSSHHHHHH ... 7

Any idea what SPR binding level was measured for 27-AS170036 VL1VH1-57K108S (scFv) scFv: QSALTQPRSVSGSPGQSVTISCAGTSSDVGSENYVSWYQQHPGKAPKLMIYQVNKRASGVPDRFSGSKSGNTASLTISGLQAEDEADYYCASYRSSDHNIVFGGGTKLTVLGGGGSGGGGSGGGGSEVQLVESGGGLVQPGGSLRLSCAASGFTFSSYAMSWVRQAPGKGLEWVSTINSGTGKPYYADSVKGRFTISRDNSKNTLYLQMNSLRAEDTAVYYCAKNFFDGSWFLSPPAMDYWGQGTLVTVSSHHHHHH ?
3.3

Any idea what SPR binding level was measured for 49-AS170036 VL1VH1-56N98F108A (scFv) scFv: QSALTQPRSVSGSPGQSVTISCAGTSSDVGSENYVSWYQQHPGKAPKLMIYQVNKRASGVPDRFSGSKSGNTASLTISGLQAEDEADYYCASYRSSDFNIVFGGGTKLTVLGGGGSGGGGSGGGGSEVQLVESGGGLVQPGGSLRLSCAASGFTFSSYAMSWVRQAPGKGLEWVSTINSGTNSPYYADSVKGRFTISRDNSKNTLYLQMNSLRAEDTAVYYCAKNFFDGSWFLAPPAMDYWGQGTLVTVSSHHHHHH ?
21.1

Any idea what SPR binding level was measured for 70-AS170036 VL1VH1-57K98I108A (scFv) scFv: QSALTQPRSVSGSPGQSVTISCAGTSSDVGSENYVSWYQQHPGKAPKLMIYQVNKRASGVPDRFSGSKSGNTASLTISGLQAEDEADYYCASYRSSDINIVFGGGTKLTVLGGGGSGGGGSGGGGSEVQLVESGGGLVQPGGSLRLSCAASGFTFSSYAMSWVRQAPGKGLEWVSTINSGTGKPYYADSVKGRFTISRDNSKNTLYLQMNSLRAEDTAVYYCAKNFFDGSWFLAPPAMDYWGQGTLVTVSSHHHHHH ?
21.9
